Answer each item with its documented GI50.
test system: A498; experiment: NCI tumour cell line growth inhibition, 48 h
Active and inactive are the calls of the source. Cut-off read from the data, not from the text of the source: active = GI50 up to about 1.1 µM and inactive = higher.

Query: Param readout= GI50; system= A498; entry= COc1ccc(N2C(=O)C3c4[nH]c5c(C)cccc5c4C4CCC(C(C)C)CC4C3C2=O)cc1 (stereo not given) ; returns value.
Reply: 14 µM (inactive)

Query: Param readout= GI50; system= A498; entry= `O=C(O)CCN1C(=S)CSC1=S` ; returns value.
Reply: > 100 µM (inactive)

Query: Param readout= GI50; system= A498; entry= C[C@]12CC/C(=N\O)C=C1CC[C@@H]1C2CC[C@@]2(C)C1CC[C@@H]2OC1CCCCO1 (stereo not given in full) ; returns value.
Reply: > 100 µM (inactive)

Query: Param readout= GI50; system= A498; entry= `Cc1ccc(S(=O)(=O)N/N=C\c2c3ccccc3[n+](C)c3ccccc23)cc1` ; returns value.
Reply: 20.4 µM (inactive)

Query: Param readout= GI50; system= A498; entry= `NS(=O)(=O)c1ccc(NC(=O)c2cccc3c(=O)c4ccccc4[nH]c23)cc1` ; returns value.
Reply: 51.3 µM (inactive)

Query: Param readout= GI50; system= A498; entry= `CN(C)Cc1cc(C(=O)O)cc(CN(C)C)c1O` ; returns value.
Reply: > 100 µM (inactive)

Query: Param readout= GI50; system= A498; entry= O=C(CCN1CCN2c3ccccc3CCC2C1)c1ccc(F)cc1 (stereo not given) ; returns value.
Reply: > 100 µM (inactive)

Query: Param readout= GI50; system= A498; entry= COc1ccc(C(C2=C(O)COC2=O)c2cc3c(cc2O)OCO3)cc1OC (stereo not given) ; returns value.
Reply: > 100 µM (inactive)

Query: Param readout= GI50; system= A498; entry= `COc1cc(-c2cc(-c3ccccc3)nc(-c3c(OC)ccc4c(C)cc(=O)oc34)c2)cc(OC)c1OC` ; returns value.
Reply: > 100 µM (inactive)

Query: Param readout= GI50; system= A498; entry= `N=C(N)SCCc1ccncc1` ; returns value.
Reply: > 100 µM (inactive)
